Each entry below carries its reported IC50.
- Test Description: Inhibition of soybean arachidonate 15-lipoxygenase by oxygen electrode method
- Parameters: species or system Glycine max

Molecule: CC(C)=CCCC1(C)C=Cc2cc(O)ccc2O1 (stereo unspecified) [CORDIACHROMENE A]
Unit String: µg/mL
Measurement Qualifier: =
IC50: 0.2

Molecule: Cc1cc(C(C)(C)C)c(O)c(C(C)(C)C)c1 [BUTYLATED HYDROXYTOLUENE]
Unit String: µg/mL
Measurement Qualifier: >
IC50: 10

Molecule: CC(C)=CCC/C(C)=C/Cc1cc(O)ccc1O [GEROQUINOL]
Unit String: µg/mL
Measurement Qualifier: =
IC50: 0.2

Molecule: CC(C)=CCCC(C)(O)CCc1cc(O)ccc1O (stereo unspecified)
Unit String: µg/mL
Measurement Qualifier: =
IC50: 3

Molecule: COc1cc2c(cc1O)C=CC(C)(CCC=C(C)C)O2 (stereo unspecified)
Unit String: µg/mL
Measurement Qualifier: =
IC50: 0.5

Molecule: CC(=O)Oc1c(C)c(C)c2c(c1C)CCC(C)(CCC[C@H](C)CCC[C@H](C)CCCC(C)C)O2 (stereo partly specified) [TOCOPHEROL ACETATE]
Unit String: µg/mL
Measurement Qualifier: >
IC50: 10
